- experimental-system: CYP2A6 (Homo sapiens, UniProt P11509)
- Sequence (P11509 whole entry): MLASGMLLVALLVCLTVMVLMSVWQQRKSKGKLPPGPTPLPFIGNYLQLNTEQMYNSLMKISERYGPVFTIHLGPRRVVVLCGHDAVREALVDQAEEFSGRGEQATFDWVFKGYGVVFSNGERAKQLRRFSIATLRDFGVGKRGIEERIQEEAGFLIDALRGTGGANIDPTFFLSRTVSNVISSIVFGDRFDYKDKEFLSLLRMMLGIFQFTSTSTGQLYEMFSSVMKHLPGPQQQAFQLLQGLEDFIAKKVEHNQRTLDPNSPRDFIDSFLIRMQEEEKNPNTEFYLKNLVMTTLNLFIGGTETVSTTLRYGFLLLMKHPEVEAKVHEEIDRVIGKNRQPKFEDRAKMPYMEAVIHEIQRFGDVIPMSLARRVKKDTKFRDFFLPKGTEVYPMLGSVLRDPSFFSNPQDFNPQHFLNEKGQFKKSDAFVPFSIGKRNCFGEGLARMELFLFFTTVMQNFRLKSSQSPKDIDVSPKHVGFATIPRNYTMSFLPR
- experimental-protocol: Inhibitory activity of 200 uM SPP100 on 37 Pmoles of cDNA-derived CYP2A6 enzyme in microsome prepared from human lymphoblastoid cell line
- Type: ADME, microsomes
- Design: conc 200 uM, interact cpd conc 3 uM
- condition-details: probe coumarine
readout: inhibition at 200 µM
Report the figure along with its unit, number first.

Prompt line: Give a short answer stating reported inhibition at 200 µM for COCCCOc1cc(C[C@@H](C[C@H](N)[C@@H](O)C[C@H](C(=O)NCC(C)(C)C(N)=O)C(C)C)C(C)C)ccc1OC .
Response line: 2.6%

====

- experimental-protocol: Cmax of aliskiren hemifumarate following 4 week oral dietary dosing of aliskiren hemifumarate at 500 mg.Kg-1 level in female mouse
- Format: ADME, organism-based
- condition-details: CB6F1-TGrasH2, mouse, in vivo
readout: Cmax

Prompt line: Give a short answer stating reported Cmax for COCCCOc1cc(C[C@@H](C[C@H](N)[C@@H](O)C[C@H](C(=O)NCC(C)(C)C(N)=O)C(C)C)C(C)C)ccc1OC.COCCCOc1cc(C[C@@H](C[C@H](N)[C@@H](O)C[C@H](C(=O)NCC(C)(C)C(N)=O)C(C)C)C(C)C)ccc1OC.O=C(O)/C=C/C(=O)O [ALISKIREN FUMARATE] .
Response line: 63.8 ng/mL

====

- experimental-system: CYP2A6 (Homo sapiens, UniProt P11509)
- experimental-protocol: Inhibitory activity of 20 uM SPP100 on 37 Pmoles of cDNA-derived CYP2A6 enzyme in microsome prepared from human lymphoblastoid cell line
- Type: ADME, microsomes
- Parameters: conc 20 uM, interact cpd conc 3 uM
- condition-details: probe coumarine
readout: inhibition at 20 µM (%)
Dear colleague, please return just the value in %, with no unit written.

Prompt line: Give a short answer stating reported inhibition at 20 µM for COCCCOc1cc(C[C@@H](C[C@H](N)[C@@H](O)C[C@H](C(=O)NCC(C)(C)C(N)=O)C(C)C)C(C)C)ccc1OC .
Response line: 2.6

====

- experimental-system: CYP1A2 (Homo sapiens, UniProt P05177)
- Sequence (P05177 whole entry): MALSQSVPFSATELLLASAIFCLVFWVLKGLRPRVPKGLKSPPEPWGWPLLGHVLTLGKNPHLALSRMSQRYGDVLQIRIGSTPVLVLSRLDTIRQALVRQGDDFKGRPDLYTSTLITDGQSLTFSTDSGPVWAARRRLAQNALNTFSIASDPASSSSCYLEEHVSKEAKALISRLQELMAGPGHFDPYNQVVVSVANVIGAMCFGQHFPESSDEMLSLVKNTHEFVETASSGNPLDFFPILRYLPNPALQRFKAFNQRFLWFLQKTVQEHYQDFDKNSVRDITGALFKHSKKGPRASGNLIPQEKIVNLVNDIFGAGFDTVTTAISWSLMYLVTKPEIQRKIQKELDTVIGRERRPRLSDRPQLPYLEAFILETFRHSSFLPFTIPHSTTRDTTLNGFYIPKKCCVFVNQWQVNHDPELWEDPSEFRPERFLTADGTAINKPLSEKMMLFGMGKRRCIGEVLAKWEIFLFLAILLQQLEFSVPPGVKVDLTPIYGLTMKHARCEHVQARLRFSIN
- experimental-protocol: Inhibitory activity of 20 uM SPP100 on 545 Pmoles of cDNA-derived CYP1A2 enzyme in microsome prepared from human lymphoblastoid cell line
- Format: ADME, microsomes
- Design: conc 20 uM, interact cpd conc 50 uM
- condition-details: probe phenacetin
readout: inhibition at 20 µM (%)
Dear colleague, please return just the value in %, with no unit written.

Prompt line: Give a short answer stating reported inhibition at 20 µM for COCCCOc1cc(C[C@@H](C[C@H](N)[C@@H](O)C[C@H](C(=O)NCC(C)(C)C(N)=O)C(C)C)C(C)C)ccc1OC .
Response line: -5.8
